All figures here come from PubChem BioAssay AID624040.

molecular target: Muscarinic acetylcholine receptor M5 (Homo sapiens) (UniProt P08912); test: human M5 muscarinic receptor antagonists, primary screen, CHO cells, Fluo-8 calcium fluorescence (AID 624040); conditions: CHO-hM5 cells, ACh EC80, at 3 µM, active compounds read high;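 note: 0% = acetylcholine EC80 with DMSO and 100% = DMSO without agonist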
Sequence (P08912 whole entry, looked up): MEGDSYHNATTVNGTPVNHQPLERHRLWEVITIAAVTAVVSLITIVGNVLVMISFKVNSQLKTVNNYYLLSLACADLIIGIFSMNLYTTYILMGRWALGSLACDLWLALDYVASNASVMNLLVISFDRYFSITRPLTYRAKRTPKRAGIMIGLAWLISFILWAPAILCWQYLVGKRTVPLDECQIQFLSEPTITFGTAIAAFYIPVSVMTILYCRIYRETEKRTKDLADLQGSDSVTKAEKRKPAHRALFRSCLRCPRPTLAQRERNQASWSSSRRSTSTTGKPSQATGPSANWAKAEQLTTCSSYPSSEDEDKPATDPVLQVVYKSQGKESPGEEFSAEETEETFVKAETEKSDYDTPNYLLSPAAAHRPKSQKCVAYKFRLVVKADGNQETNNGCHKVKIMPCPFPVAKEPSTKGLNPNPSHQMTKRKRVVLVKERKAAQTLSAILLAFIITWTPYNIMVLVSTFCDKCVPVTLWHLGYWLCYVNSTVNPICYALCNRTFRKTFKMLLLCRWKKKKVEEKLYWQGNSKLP
Among all 360,000 compounds or so, about 2,100 (0.58%) were called active. For the sample, actives were picked, then their nearest neighbours and some compounds at random.
Mark Criterion met for reported inhibition of 10% or greater; mark Criterion not met for anything smaller.

IN: Please check the record CCC(C(=O)OCCN(CC)CC)c1ccccc1 (stereo unspecified) and state if its inhibition is at or above 10%.
OUT: Criterion met

IN: Please check the record CCCCn1nnnc1C(c1cccc(OC)c1OC)N1CCN(C/C=C/c2ccccc2)CC1 (stereo unspecified) and state if its inhibition is at or above 10%.
OUT: Criterion met

IN: Please check the record `COc1cc(CNc2ncnc3c2ncn3[C@H]2CN(Cc3cccs3)C[C@@H](CO)O2)cc(OC)c1OC` and state if its inhibition is at or above 10%.
OUT: Criterion met

IN: Please check the record `NC1=NC[C@@H](Cc2ccc(O)cc2)N1CC1CCCCC1` and state if its inhibition is at or above 10%.
OUT: Criterion not met

IN: Please check the record CC1(C(=O)Nc2ccccc2Br)CCN1C(=O)CC1CC1 (stereo unspecified) and state if its inhibition is at or above 10%.
OUT: Criterion not met

IN: Please check the record `O=C(Nc1ccc(Cl)cn1)c1ccccc1-c1ccccc1` and state if its inhibition is at or above 10%.
OUT: Criterion met

IN: Please check the record `COC(CCN(C)C)(c1ccccc1)c1ccccc1` and state if its inhibition is at or above 10%.
OUT: Criterion met

IN: Please check the record COc1ccc(C(c2nnnn2C2CCCC2)N2CCN(C/C=C/c3ccccc3)CC2)cc1 (stereo unspecified) and state if its inhibition is at or above 10%.
OUT: Criterion met

IN: Please check the record `Cc1ccc(S(=O)(=O)N2CCC(N3CCCCCC3)CC2)cc1` and state if its inhibition is at or above 10%.
OUT: Criterion not met

IN: Please check the record CCC(C(=O)Nc1ccc(C(C)C)cc1)c1ccccc1 (stereo unspecified) and state if its inhibition is at or above 10%.
OUT: Criterion met

---

biological target: Muscarinic acetylcholine receptor M5 (Homo sapiens) (UniProt P08912); assay: human M5 muscarinic receptor antagonists, primary screen, CHO cells, Fluo-8 calcium fluorescence (AID 624040); conditions: CHO-hM5 cells, ACh EC80, at 3 µM, active compounds read high;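 note: 0% = acetylcholine EC80 with DMSO and 100% = DMSO without agonist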
Screen size: about 360,000 compounds; about 2,100 (0.58%) were called active. The entries come from a sample that favours actives as a whole.
attribute.measured: inhibition (%)
Numbers only here, please. The scale is %.

IN: Could you tell me which inhibition is on file for `O=c1cc(CN2CCCCCCC2)c2c(ccc3ccccc32)o1` ?
OUT: 1.52

IN: Could you tell me which inhibition is on file for Cc1cc(C)c(S(=O)(=O)N2CCCC2CNC(=O)c2ccc3c(c2)OCO3)c(C)c1 (stereo not given) ?
OUT: 10.3

IN: Could you tell me which inhibition is on file for `C#CCO[C@@H]1C[C@H](n2cnc3c(=O)[nH]c(NC(=O)C(C)C)nc32)O[C@@H]1CO` ?
OUT: 9.77

IN: Could you tell me which inhibition is on file for CCCCOC(=O)c1ccc(NC(c2ccc(C)cc2)P(=O)(OC)OC)cc1 (stereo not given) ?
OUT: 8.39

IN: Could you tell me which inhibition is on file for CC1=C(C)CC(C(=O)NNC(=O)c2csc3c2CCC(C(C)(C)C)C3)C(C(=O)O)C1 (stereo not given) ?
OUT: -0.27
